assay_notes: Caco-2 permeability screening
Format: in vitro ADME
measurement_context: human, Caco-2, 20 μM; read-out: Efflux ratio B to A/A to B
measurement_kind: efflux ratio at 20 µM

1. Oc1cc(OCCN2CCOCC2)ccc1C=Nc1ccccc1N=Cc1ccc(OCCN2CCOCC2)cc1O.[Ga+3]    29
2. COCCOc1ccc(/C=N/c2ccccc2/N=C/c2ccc(OCCOC)cc2O)c(O)c1.[Ga+3]    1.49
3. CCCCOc1ccc(/C=N/c2ccccc2/N=C/c2ccc(OCCCC)cc2O)c(O)c1.[Ga+3]    9.02
4. Oc1ccccc1/C=N/c1ccccc1/N=C/c1ccccc1O.[Ga+3]    11.3

###

assay_notes: RBC/PL partitioning equilibrium in whole blood
measurement_context: 0.1 μg/mL, pooled sodium heparin whole blood, 2 hours, LC-MS/MS (ICP-MS for Ga^3+)
Listing of recorded Heparin KRBC/PL by entry.
measurement_kind: Heparin KRBC/PL

1) CCCCOc1ccc(/C=N/c2ccccc2/N=C/c2ccc(OCCCC)cc2O)c(O)c1.[Ga+3]    0.83
2) Oc1cc(OCCN2CCOCC2)ccc1C=Nc1ccccc1N=Cc1ccc(OCCN2CCOCC2)cc1O.[Ga+3]    1.08
3) CC(=Nc1ccccc1N=Cc1ccc(OCCN2CCOCC2)cc1O)c1ccccc1O.[Ga+3]    33.8
4) CC(=Nc1ccccc1/N=C/c1ccc(OCCCO)cc1O)c1ccccc1O.[Ga+3]    0.86
5) Oc1ccccc1/C=N/c1ccccc1/N=C/c1ccccc1O.[Ga+3]    0.61
6) COCCOc1ccc(/C=N/c2ccccc2N=C(C)c2ccccc2O)c(O)c1.[Ga+3]    0.55

###

assay_notes: S9 clearance assay
Type: in vitro ADME
measurement_context: Sprague-Dawley, pH 7.4, S9 rat liver fraction, average ± SEM n = 3
measurement_kind: half-life at 2 µM (min)

1. CCOc1ccc2ccc(=O)oc2c1 [7-ethoxycoumarin, 7-Ethoxycoumarin, reference compound]    25.2

###

Listing of recorded Papp by entry.
assay_notes: Caco-2 permeability screening
Type: in vitro ADME
measurement_context: Caco-2; ranked by Papp against control drugs; read-out: Permeability ranking
measurement_kind: Papp

1) CCCCOc1ccc(/C=N/c2ccccc2/N=C/c2ccc(OCCCC)cc2O)c(O)c1.[Ga+3] [GaSal-15]    < 1.12 ×10⁻⁶ cm/s
2) Oc1ccccc1/C=N/c1ccccc1/N=C/c1ccccc1O.[Ga+3] [GaSal, gallium salophen]    1.12 to 3.51 ×10⁻⁶ cm/s
3) OCCCOc1ccc(/C=N/c2ccccc2/N=C/c2ccc(OCCCO)cc2O)c(O)c1.[Ga+3] [GaSal-11]    < 1.12 ×10⁻⁶ cm/s
4) COCCOc1ccc(/C=N/c2ccccc2N=C(C)c2ccccc2O)c(O)c1.[Ga+3] [GaSal-14]    < 1.12 ×10⁻⁶ cm/s

###

assay_notes: RBC/PL partitioning equilibrium in whole blood
measurement_context: 0.1 μg/mL, pooled sodium heparin whole blood, 2 hours, LC-MS/MS (ICP-MS for Ga^3+)
Listing of recorded Heparin KRBC/PL by entry.
measurement_kind: Heparin KRBC/PL

1) O=C(O)CCOc1ccc(C=Nc2ccccc2N=Cc2ccc(OCCC(=O)O)cc2O)c(O)c1.[Ga+3]    3422
2) COCCOc1ccc(/C=N/c2ccccc2/N=C/c2ccc(OCCOC)cc2O)c(O)c1.[Ga+3]    0.47
3) OCCCOc1ccc(/C=N/c2ccccc2/N=C/c2ccc(OCCCO)cc2O)c(O)c1.[Ga+3]    0.91
4) COCCOCCOc1ccc(C=Nc2ccccc2N=Cc2ccc(OCCOCCOC)cc2O)c(O)c1.[Ga+3]    1.91

###

assay_notes: Caco-2 permeability screening
Format: in vitro ADME
measurement_context: Caco-2, with PGP inhibitor cocktail (1 μM cannabidiol and itraconazole); read-out: Papp Apical to Basolateral
measurement_kind: Papp A→B (×10⁻⁶ cm/s)

1) Oc1ccccc1/C=N/c1ccccc1/N=C/c1ccccc1O.[Ga+3]    1.33

###

Listing of recorded half-life at 2 µM by entry.
assay_notes: S9 clearance assay
Assay type: in vitro ADME
measurement_context: pH 7.4, S9 rat liver fraction, average ± SEM n = 3
measurement_kind: half-life at 2 µM (h)

1. Oc1ccccc1/C=N/c1ccccc1/N=C/c1ccccc1O.[Ga+3]    0.59
2. COCCOCCOc1ccc(C=Nc2ccccc2N=Cc2ccc(OCCOCCOC)cc2O)c(O)c1.[Ga+3]    2.88
3. O=C(O)CCOc1ccc(C=Nc2ccccc2N=Cc2ccc(OCCC(=O)O)cc2O)c(O)c1.[Ga+3]    0.2
4. Oc1cc(OCCN2CCOCC2)ccc1C=Nc1ccccc1N=Cc1ccc(OCCN2CCOCC2)cc1O.[Ga+3]    2.67
